B1: VPS39 (parent)
chain: LRLENNHCHIEESEHVLKKAHKYS

- Variants of: B1
- Method: protein stability index of a GFP-peptide fusion (GPS, HEK-293T) (PSI 1-6); higher = more stable;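 note: lentivirally expressed fusions sorted by FACS into six bins by GFP to DsRed ratio, PSI derived from sequencing read proportions per bin multiplied by bin number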
- Protocol Conditions: c terminus: a fixed tail appended
Grouping key: protein stability index. Bins: lower level: < 2; middle level: ≥ 2 and < 3; upper level: ≥ 3

# classify by protein stability index band: Y23W
lower level

# classify by protein stability index band: R2N
upper level

# classify by protein stability index band: E11T
middle level

# classify by protein stability index band: L1Y
upper level

# classify by protein stability index band: L3I
middle level

# classify by protein stability index band: L17A
lower level

# classify by protein stability index band: S13V
middle level

# classify by protein stability index band: V16C
middle level
